Here, each record is paired with measured protein stability index data.
Tested on: Saccharomyces cerevisiae;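 note: PSI is a weighted mean of sequencing reads over stability bins, variants kept only with over 10 reads, mCherry proximal and sfGFP distal, peptide attached via GGGS linker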
Experiment: protein stability index of tFT-peptide fusion (C-terminal peptide) (PSI (0-1 scale)); higher = more stable (slower turnover)
Conditions: genetic background: cdc34-1; temperature: 37 C
property_name: protein stability index

{"polymer_sequence": "VIQKKKKNKITS", "property_name": "protein stability index", "numeric_result": 0.617}
{"polymer_sequence": "TGGGGRVSLGGG", "property_name": "protein stability index", "numeric_result": 0.337}
{"polymer_sequence": "FFLLLLRPPLVM", "property_name": "protein stability index", "numeric_result": 0.34}
{"polymer_sequence": "GVAFGLLVWLLG", "property_name": "protein stability index", "numeric_result": 0.432}
{"polymer_sequence": "SWGRGADRWRRA", "property_name": "protein stability index", "numeric_result": 0.645}
{"polymer_sequence": "FTRLDYKRIKIV", "property_name": "protein stability index", "numeric_result": 0.184}
{"polymer_sequence": "LLLFLHSTLTCR", "property_name": "protein stability index", "numeric_result": 0.474}
{"polymer_sequence": "GGGWCEMLIVVG", "property_name": "protein stability index", "numeric_result": 0.506}
{"polymer_sequence": "LWRRSLLLLRCC", "property_name": "protein stability index", "numeric_result": 0.0526}
{"polymer_sequence": "RERRISRIPCLS", "property_name": "protein stability index", "numeric_result": 0.594}
{"polymer_sequence": "WILLVLACFSSG", "property_name": "protein stability index", "numeric_result": 0.25}
{"polymer_sequence": "KYCPCIPLLIAL", "property_name": "protein stability index", "numeric_result": 0.406}
{"polymer_sequence": "YFIVVSWFLVCW", "property_name": "protein stability index", "numeric_result": 0.0981}
{"polymer_sequence": "RLVRILSTILLN", "property_name": "protein stability index", "numeric_result": 0.487}
{"polymer_sequence": "RGAVRVAWYPVL", "property_name": "protein stability index", "numeric_result": 0.699}
{"polymer_sequence": "RLVVSRNFYRLC", "property_name": "protein stability index", "numeric_result": 0.622}
{"polymer_sequence": "PCNVLWYSLFLF", "property_name": "protein stability index", "numeric_result": 0.487}
{"polymer_sequence": "GALWVLGVVVGG", "property_name": "protein stability index", "numeric_result": 0.461}
{"polymer_sequence": "SPGFVLLAVLVI", "property_name": "protein stability index", "numeric_result": 0.164}
{"polymer_sequence": "SRGGVFYVRIHS", "property_name": "protein stability index", "numeric_result": 0.647}
{"polymer_sequence": "GGGEGVVWVRLG", "property_name": "protein stability index", "numeric_result": 0.537}
{"polymer_sequence": "VRICVVLRVCWW", "property_name": "protein stability index", "numeric_result": 0.0855}
{"polymer_sequence": "FWMLCFLCRLTV", "property_name": "protein stability index", "numeric_result": 0.324}
{"polymer_sequence": "FVEFCFWCFWVV", "property_name": "protein stability index", "numeric_result": 0.481}
{"polymer_sequence": "MFRSEVSWKLCC", "property_name": "protein stability index", "numeric_result": 0.619}
{"polymer_sequence": "RPRRARLPNFLA", "property_name": "protein stability index", "numeric_result": 0.37}
{"polymer_sequence": "CYCSIGCLIIFS", "property_name": "protein stability index", "numeric_result": 0.226}
{"polymer_sequence": "RIRRVMHLYTNN", "property_name": "protein stability index", "numeric_result": 0.475}
{"polymer_sequence": "FDWLFFFVNFVV", "property_name": "protein stability index", "numeric_result": 0.407}
{"polymer_sequence": "DVCGVRYVLFVL", "property_name": "protein stability index", "numeric_result": 0.57}
{"polymer_sequence": "FLAFSYIRLLFF", "property_name": "protein stability index", "numeric_result": 0.468}
{"polymer_sequence": "CCSGWSVRLLCV", "property_name": "protein stability index", "numeric_result": 0.578}
{"polymer_sequence": "INILVIWRKNHV", "property_name": "protein stability index", "numeric_result": 0.463}
{"polymer_sequence": "LIIVFGFTSILR", "property_name": "protein stability index", "numeric_result": 0.441}
{"polymer_sequence": "VVLGLFCVRMGT", "property_name": "protein stability index", "numeric_result": 0.541}
{"polymer_sequence": "CLAGALSWLRRG", "property_name": "protein stability index", "numeric_result": 0.704}
{"polymer_sequence": "SDAIKITFIIHN", "property_name": "protein stability index", "numeric_result": 0.687}
{"polymer_sequence": "GSLHVISVVGML", "property_name": "protein stability index", "numeric_result": 0.696}
{"polymer_sequence": "LFFWWVAVVFRV", "property_name": "protein stability index", "numeric_result": 0.0928}
{"polymer_sequence": "YSALHNPPQPVT", "property_name": "protein stability index", "numeric_result": 0.665}
{"polymer_sequence": "VRDQGWILNMLL", "property_name": "protein stability index", "numeric_result": 0.727}
{"polymer_sequence": "LERLHSVLLLTS", "property_name": "protein stability index", "numeric_result": 0.246}
{"polymer_sequence": "FLFLFLFPFSLI", "property_name": "protein stability index", "numeric_result": 0.525}
{"polymer_sequence": "CLLLFFIFLLFL", "property_name": "protein stability index", "numeric_result": 0.484}
{"polymer_sequence": "FPLPPPGSPPPL", "property_name": "protein stability index", "numeric_result": 0.68}
{"polymer_sequence": "LVCSLLVPSSFF", "property_name": "protein stability index", "numeric_result": 0.679}
{"polymer_sequence": "YTLWFLAWGLVF", "property_name": "protein stability index", "numeric_result": 0.262}
{"polymer_sequence": "VRGAVGGWRLVG", "property_name": "protein stability index", "numeric_result": 0.572}
{"polymer_sequence": "KRKKHKRKLVIC", "property_name": "protein stability index", "numeric_result": 0.611}
{"polymer_sequence": "VCVRLVHCLVLV", "property_name": "protein stability index", "numeric_result": 0.236}
{"polymer_sequence": "LCWRLCRFWWVG", "property_name": "protein stability index", "numeric_result": 0.75}
{"polymer_sequence": "GYAFPPPHRVRT", "property_name": "protein stability index", "numeric_result": 0.654}
{"polymer_sequence": "FFGVLFRVSLFF", "property_name": "protein stability index", "numeric_result": 0.12}
{"polymer_sequence": "VYVYTIRVRWSE", "property_name": "protein stability index", "numeric_result": 0.135}
{"polymer_sequence": "QDQWINTSLELS", "property_name": "protein stability index", "numeric_result": 0.677}
